system: Silicibacter sp. strain TM1040; test: Chemotaxis plate screening assay (change in motile colony morphology); format: cell-based; conditions: BM motility agar, glucose as single carbon source; also: key: −: minus indicates no change compared to distilled water or no attractant controls; +: either one or two pluses indicates moderate to strong alteration in motile colony phenotype (respectively); ++: either one or two pluses indicates moderate to strong alteration in motile colony phenotype (respectively)
Quantity: Change in morphology with carbon source Glucose

| Molecule | System Tested | Result |
| --- | --- | --- |
| C[C@H](N)C(=O)O | Silicibacter sp. strain TM1040 | − |
| N[C@@H](CCC(=O)O)C(=O)O | Silicibacter sp. strain TM1040 | − |
| OC[C@H]1O[C@@H](O[C@H]2[C@H](O)[C@@H](O)C(O)O[C@@H]2CO)[C@H](O)[C@@H](O)[C@H]1O (stereo partly shown) | Silicibacter sp. strain TM1040 | − |
| O=C(O)CCC(=O)O [Succinate] | Silicibacter sp. strain TM1040 | + |
| O=C(O)CCC(=O)C(=O)O [Alpha-ketoglutarate] | Silicibacter sp. strain TM1040 | − |
| O=C[C@H](O)[C@@H](O)[C@@H](O)[C@H](O)CO | Silicibacter sp. strain TM1040 | − |
| C[S+](C)[O-] [DMSO, dimethyl sulfoxide] | Silicibacter sp. strain TM1040 | − |
| CC(=O)N[C@H]1C(O)O[C@H](CO)[C@@H](O)[C@@H]1O (stereo partly shown) | Silicibacter sp. strain TM1040 | − |
| CC(C)[C@H](N)C(=O)O | Silicibacter sp. strain TM1040 | − |
| C[S+](C)CCC(=O)[O-] [DMSP, Dimethylsulfoniopropionate] | Silicibacter sp. strain TM1040 | − |
| NCCCC[C@H](N)C(=O)O | Silicibacter sp. strain TM1040 | − |
| C=CC(=O)O [acrylate] | Silicibacter sp. strain TM1040 | + |
| OC[C@H]1O[C@H](O[C@H]2[C@H](O)[C@@H](O)[C@H](O)O[C@@H]2CO)[C@H](O)[C@@H](O)[C@@H]1O | Silicibacter sp. strain TM1040 | − |
